target: Ferritin light chain (Equus caballus); test: qHTS Assay for Identification of Novel General Anesthetics; details: apoferritin/1-aminoanthracene competitive binding, fluorescence; series mostly up to 77.5 µM; further: nearly all actives have a fitted effect of over 20% in size
In all, about 350,000 compounds went through this assay and about 260 (0.074%) were called active. Another 8% or so got no clear call; they are omitted. The call rests on the fitted dose curve; in most records, active means well fitted inhibition curve with a large enough effect; inconclusive means small, poorly fitted or top-dose-only effect; inactive means no such curve, though single readings can be large or run the other way. The sample holds actives, similar compounds and a random draw of the others, so the mix is not that of the screen.
Allowed answers: T (active), F (inactive)

Here's what some known entries look like.
MOLECULE	CLASS LABEL
CCC(=O)N1CCc2cc(S(=O)(=O)NC(Cc3ccccc3)C(=O)NCc3ccccc3)ccc21 (stereo not given)	F
Cc1c(Br)cc(C(=O)N2CCCCCC2)c(C)c1C	T
CN(C(=O)CSc1nc2ccccc2n1Cc1ccccc1C#N)c1ccccc1	F
CCOCCc1nn2c(=O)cc(COC(=O)CNC(=O)c3ccc(C(C)(C)C)cc3)nc2s1	F
COc1ccc(CCNC(=O)CCCCn2c(=O)c3ccccc3n(Cc3ccccc3C)c2=O)cc1OC	F
COc1ccc(CCNC(=O)c2ccc3c(c2)nc(C)n3-c2ccc(Br)cc2)cc1OC	F
COc1ccc(CNC(=O)CSCc2nc(-c3ccccc3F)oc2C)cc1	F
COc1cc(OC)c(C(=O)N2CCCC2)cc1OC	F
O=C(NCC12CC3CC(CC(C3)C1)C2)c1cc2nc(-c3ccccc3)cc(C(F)(F)F)n2n1	F

Query molecule follows.
Q) Please share the test call associated with O=C(NCc1ccccc1)C(=O)NCC(c1ccco1)S(=O)(=O)c1ccc(Cl)cc1 (stereo not given) .
A) F

====

target: Ferritin light chain (Equus caballus) (UniProt P02791); test: qHTS Assay for Identification of Novel General Anesthetics; conditions: apoferritin/1-aminoanthracene competitive binding, fluorescence; series mostly up to 77.5 µM; further: nearly all actives have a fitted effect of over 20% in size
Sequence (P02791 2-175 limits assumed): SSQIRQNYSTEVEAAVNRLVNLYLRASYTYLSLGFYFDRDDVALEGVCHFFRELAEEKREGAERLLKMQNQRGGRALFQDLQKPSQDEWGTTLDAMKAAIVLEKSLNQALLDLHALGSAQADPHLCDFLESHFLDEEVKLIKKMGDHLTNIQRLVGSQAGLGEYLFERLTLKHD
Out of some 350,000 compounds screened, about 260 (0.074%) were called active. Another 8% or so got no clear call; they are omitted. Calls follow the shape of the dose curve; as a rule, active = well fitted inhibition curve with a large enough effect; inconclusive = small, poorly fitted or top-dose-only effect; inactive = no such curve, though single readings can be large or run the other way. The sample holds actives, similar compounds and a random draw of the others, so the mix is not that of the screen.
Allowed answers: active, inactive

Here's what some known entries look like.
MOLECULE	CLASS LABEL
COc1ccc(Nc2ncc3c(n2)CCN(C(=O)OC(C)(C)C)C3)cc1	inactive
Cc1ccc2oc3c(c(=O)c2c1)C(c1ccc([N+](=O)[O-])cc1)N(CCCN1CCOCC1)C3=O (stereo unspecified)	inactive

Q) Please share the test call associated with "Cc1ccc(-c2nnc(SCC(=O)NCc3ccccc3)nc2-c2ccc(C)cc2)cc1" .
A) inactive

Q) Please share the test call associated with "CCCn1c2ccccc2c2cnn(CC(=O)N(C)c3ccccc3CC)c(=O)c21" .
A) inactive

Q) Please share the test call associated with "CCc1ccccc1OCCSc1nc(-c2cccs2)nc2cc(=O)[nH]n12" .
A) inactive

Q) Please share the test call associated with CCOc1ccc(CN2CCNC(=O)C2CC(=O)NCCCC2CCCC2)cc1 (stereo unspecified) .
A) active

Q) Please share the test call associated with "COc1ccc(N2CCN(S(=O)(=O)c3ccc(-c4coc(C)n4)cc3)CC2)cc1" .
A) inactive

Q) Please share the test call associated with "CCCSc1nsc(N)n1" .
A) inactive

====

molecular target: Ferritin light chain (Equus caballus); experiment: qHTS Assay for Identification of Novel General Anesthetics; conditions: apoferritin/1-aminoanthracene competitive binding, fluorescence; series mostly up to 77.5 µM; further: nearly all actives have a fitted effect of over 20% in size
Screen size: about 350,000 compounds; about 260 (0.074%) were called active. Not shown: some 8% with an inconclusive outcome. Shown is part of a subset that was picked to be rich in actives.
PARAMETER MEASURED: outcome

COMPOUND	outcome
O=c1cc(-c2ccccc2)n2c(SCc3ccccc3)nnc2[nH]1	inactive
CCc1ccc(NC(=O)c2sc3nc4c(cc3c2N)CN(CC)CC4)cc1	inactive
Cc1cc(O)c(C(c2ccccc2)N2CCN(c3ccccc3F)CC2)c(=O)n1Cc1ccco1 (stereo not given)	inactive
Cc1ccc(-c2nc(SCc3ccc(Br)cc3)n3[nH]c(=O)cc3n2)cc1	inactive

Okay, next one:
Q) Any idea what its outcome is? The compound is "CC(=O)N1CCCc2cc(S(=O)(=O)N3CCC(C(=O)NCc4ccc(C)cc4)CC3)ccc21"
A) inactive

====

biological target: Ferritin light chain (Equus caballus) (UniProt P02791); assay: qHTS Assay for Identification of Novel General Anesthetics; conditions: apoferritin/1-aminoanthracene competitive binding, fluorescence; series mostly up to 77.5 µM; further: nearly all actives have a fitted effect of over 20% in size
Hit rate of the full screen: of about 350,000 compounds, about 260 (0.074%) were called active. Inconclusive results (about 8%) are left out. Calls come from the whole dose curve; as a rule, active = well fitted inhibition curve with a large enough effect; inconclusive = small, poorly fitted or top-dose-only effect; inactive = no such curve, though single readings can be large or run the other way. For the sample, actives were picked, then their nearest neighbours and some compounds at random.
Allowed answers: active, inactive

Q) Please share the test call associated with "Cc1ccc(NC(=O)CSc2nc3c([nH]c4ccccc43)c(=O)n2-c2ccccc2)c(C)c1" .
A) inactive

Q) Please share the test call associated with "Cc1cc(=O)n(CC(=O)Nc2cccc([N+](=O)[O-])c2)c(-n2nc(C)cc2C)n1" .
A) inactive

Q) Please share the test call associated with "Cc1ccc(F)c(NC(=O)CCOc2ccccc2C)c1" .
A) inactive

Q) Please share the test call associated with "O=C(Nc1ccc(NC(=O)c2cccs2)cc1)c1ccc2ccccc2c1" .
A) inactive

Q) Please share the test call associated with "O=C(CSc1nc(-c2cccc(F)c2)[nH]c1-c1ccccc1)Nc1ccc2c(c1)OCO2" .
A) inactive

Q) Please share the test call associated with "Cc1ccc(F)c(NC(=O)CCc2ccccc2)c1" .
A) active

Q) Please share the test call associated with Nc1ccc(C(=O)OCC(=O)NC2CCS(=O)(=O)C2)cc1[N+](=O)[O-] (configuration not stated) .
A) inactive

====

biological target: Ferritin light chain (Equus caballus) (UniProt P02791); assay: qHTS Assay for Identification of Novel General Anesthetics; conditions: apoferritin/1-aminoanthracene competitive binding, fluorescence; series mostly up to 77.5 µM; further: nearly all actives have a fitted effect of over 20% in size; further: potency means the concentration at half of the fitted maximal effect
The campaign covered roughly 350,000 compounds. About 260 (0.074%) were called active. Roughly 8% stayed inconclusive and do not appear here. Shown is part of a subset that was picked to be rich in actives.

COMPOUND	Potency
Cc1nccn1CCCNC(=O)CC1C(=O)NCCN1Cc1ccc(Cl)c(F)c1 (stereo not drawn)	inactive
CCCCCCSc1nsc(N)n1	8.91 µM (active)
Cc1cccc(N2CCN(C3=C(c4ccccc4)C(=O)c4ccccc43)CC2)c1C	inactive
